endpoint label: melting point (°C)

Below are worked cases with known answers.
- compound: "N#C/C(=C\\c1ccc(Cl)cc1Cl)c1nc(-c2cccc3ccccc23)cs1"
  melting point (°C): 133
- compound: "O=C(NC(CO)C(=O)O)OCc1ccccc1 (stereo not drawn)"
  melting point (°C): 111
- compound: "C[C@]12C/C(=C/O)C(=O)C[C@@H]1CC[C@@H]1[C@@H]2CC[C@@]2(C)[C@H]1CC[C@]2(C)O"
  melting point (°C): 179
- compound: "O=C(O)c1ccc([N+](=O)[O-])o1"
  melting point (°C): 187
- compound: "CCC(C)(C)C(=O)O[C@H]1C[C@@H](C)C=C2C=C[C@H](C)[C@H](CC[C@@H]3C[C@@H](O)CC(=O)O3)[C@H]21"
  melting point (°C): 136
- compound: "COc1ccc(C(=O)O)cc1 [4-methoxybenzoic acid]"
  melting point (°C): 184

[1] CCOC(=O)c1cccc(B(O)O)c1 [3-(ethoxycarbonyl)benzeneboronic acid]
[2] COc1ccc(/C=C/C=O)cc1 [trans-4-methoxycinnamaldehyde]
// pick larger melting point from pair: 1 vs 2 Write the label of whichever entry you select.
1
(1: 137 °C, 2: 58 °C)

* * *

Listing of recorded melting point by entry.
Express the result in °C but write the number alone.

- compound: "Cc1ccc(N)c(C)c1"
  units text: "°C"
  melting point: 16
- compound: "NS(=O)(=O)c1cccc(Br)c1 [3-bromobenzenesulfonamide]"
  units text: "°C"
  melting point: 156
- compound: "OC(c1ccccc1)(c1ccccc1)C1CCNCC1"
  units text: "°C"
  melting point: 160

Could you share which melting point value was measured for O=P1(NCCCl)OCCCN1CCCl (stereo unspecified) [Ifosfamide] ?
40

And the next one, "N#CCCC#N" ?
56

And the next one, "COc1cc(OC)c(OC)cc1C=O" ?
114

* * *

endpoint label: melting point (°C)

- molecule: "CCC(Br)(CC)C(=O)NC(=O)NC(C)=O"
  melting point / °C: 109
- molecule: "O=C(O)CCCC(=O)O"
  melting point / °C: 97
- molecule: "CC(C)(C)NCC(O)COc1cccc2c1CC(O)C(O)C2 (stereo unspecified)"
  melting point / °C: 124
- molecule: "Cl/C=C\\Cl [cis-1,2-dichloroethylene]"
  melting point / °C: -80
- molecule: "CN1C(=O)c2ccccc2C1C1=COCCC1 (stereo unspecified) [3-(3,4-Dihydro-2H-pyran-5-yl)-2-methylisoindolin-1-one]"
  melting point / °C: 95.5
- molecule: "BrC(Br)c1ccc(C(Br)Br)cc1"
  melting point / °C: 168

* * *

endpoint label: melting point (°C)

Below are worked cases with known answers.
- compound: "CN(C)CCO [2-(Dimethylamino)ethanol]"
  reported result: -70
- compound: "Cc1cc(Br)ncc1B(O)O"
  reported result: 164
- compound: "COc1cc(Cc2cnc(N)nc2N)cc(OC)c1OC"
  reported result: 201
- compound: "COc1ccc(C(=O)O)cc1 [P-Anisic Acid]"
  reported result: 185
- compound: "CN(C)C=O [dimethylformamide]"
  reported result: -61
- compound: "CC(=O)Oc1ccccc1C(=O)O [aspirin]"
  reported result: 138

[A] CC(C(=O)O)c1cccc(C(=O)c2ccccc2)c1 (stereo not drawn)
[B] NC(N)=Nc1nc(CSCCC(N)=N[S+2](N)([O-])[O-])cs1
// pick larger melting point from pair: A vs B Write the label of whichever entry you select.
B

[A] NNc1cc(Cl)ccc1Cl [2,5-dichlorophenylhydrazine]
[B] O=C(O)CC(S)C(=O)O (stereo not drawn)
// pick larger melting point from pair: A vs B Write the label of whichever entry you select.
B

[1] Oc1cc(Cl)c(-c2c(Cl)cc(Cl)cc2Cl)c(Cl)c1O
[2] OB(O)c1cccc(O)c1 [3-hydroxybenzeneboronic acid]
[3] c1ccc(Cc2ccccc2)cc1
Returns the items ordered by melting point, from maximum to minimum. Answer by writing out the labels in the requested order.
2, 1, 3

Data credit: the Bradley open melting point set (2014)
